These data points were gathered from patent US8921576B2.

study-system: GST-GK derived from human liver GK (Homo sapiens, UniProt P35557)
Construct: made in house; host or cells: Escherichia coli DH5α
Sequence (P35557 1-466 isoform P35557-2): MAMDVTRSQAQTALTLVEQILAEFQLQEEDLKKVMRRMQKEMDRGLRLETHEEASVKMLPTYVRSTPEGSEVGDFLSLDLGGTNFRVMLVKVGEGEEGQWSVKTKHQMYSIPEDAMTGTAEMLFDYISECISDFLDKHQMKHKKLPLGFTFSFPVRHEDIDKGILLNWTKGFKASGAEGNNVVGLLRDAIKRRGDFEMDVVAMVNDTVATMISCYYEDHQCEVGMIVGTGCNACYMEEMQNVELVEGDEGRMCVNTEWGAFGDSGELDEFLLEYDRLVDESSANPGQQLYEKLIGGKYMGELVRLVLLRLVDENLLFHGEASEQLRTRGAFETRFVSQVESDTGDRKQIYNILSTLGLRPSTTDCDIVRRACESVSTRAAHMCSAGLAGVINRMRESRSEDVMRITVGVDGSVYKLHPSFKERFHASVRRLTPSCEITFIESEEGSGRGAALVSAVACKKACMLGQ
protocol-description: In vitro GK activity measurement test (G6PDH-coupled, OD340)
Assay type: biochemical
assay-context: test compound 1 μmol/L; glucose 2.5 mmol/L; 25° C.; OD340 slope with compound / without compound; read-out: GK activation rate (%)
Assign activity at 1 µM to each entry below.
Numbers only, in %.

The examples below pair each entry with its known result.
CS(=O)(=O)CCNC(=O)N1CCC2(C1)CN(C(=O)Nc1ncc(Cl)s1)c1ccc(Cl)cc12 (centres unmarked); 480
COC(=O)N1CCC2(C1)CN(C(=O)Nc1ncc(SCCCC(=O)NO)s1)c1ccc(Cl)cc12 (centres unmarked); 532
CNC(=O)CCNC(=O)N1CCC2(C1)CN(C(=O)Nc1ncc(Cl)s1)c1ccc(Cl)cc12 (centres unmarked); 474
COCCN(CC1CC1)S(=O)(=O)c1ccc2c(c1)C1(CCN(C(C)=O)C1)CN2C(=O)Nc1nc2ccc(OC)nc2s1 (centres unmarked); 689
COC(=O)N1CCC2(C1)CN(C(=O)Nc1ncc(SCCCNS(=O)(=O)C3CC3)s1)c1ccc(Cl)cc12 (centres unmarked); 669
CNC(=O)N1CCC2(C1)CN(C(=O)Nc1ncc(Cl)s1)c1ccc(C(F)(F)F)cc12 (centres unmarked); 613
CONC(=O)N1CCC2(C1)CN(C(=O)Nc1ncc(Cl)s1)c1ccc(Cl)cc12 (centres unmarked); 477
O=C(NCCCCO)N1CCC2(C1)CN(C(=O)Nc1ncc(Cl)s1)c1ccc(Cl)cc12 (centres unmarked); 459
COC(=O)N1CC[C@@]2(C1)CN(C(=O)Nc1nc3ccc(OC)nc3s1)c1ccc(S(=O)(=O)N(CCCC(=O)O)Cc3ccccc3)cc12; 420
COc1ccc2nc(NC(=O)N3CC4(CCN(C(C)=O)C4)c4cc(S(=O)(=O)N(CCO)CC5CC5)ccc43)sc2n1 (centres unmarked); 843

Proceeding to the next molecule to report its activity at 1 µM.
Which activity at 1 µM is listed for CC(=O)N1CCC2(C1)CN(C(=O)Nc1ncc(Cl)s1)c1ccc(Br)cc12 (centres unmarked) ?
716
